# Tested on: IGROV1 complex spheroids (HUVEC, MSC), viability % test/control
# assay-comment: Anticancer human tumor IGROV1 cell line growth inhibition [GQUAD];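 also: spheroids exposed to compounds for 7 days before readout; 100% = DMSO vehicle control viability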
# experimental-conditions: second compound 1 µM; first compound 0.316 µM; active compounds read low
The following compounds are listed with their measured viability, T/C values.
readout-type: viability, T/C (%)

[[record]]
compound = "CC(C)(O)C1CCC(Nc2ccc3ncc(-c4cccc(C(F)(F)F)c4)n3n2)CC1 (stereo not given) + Cc1cnc(CNC(=O)c2c(=O)c3ccc(N4CCCN(C)CC4)nc3n3c2sc2ccccc23)cn1"
system_tested = "IGROV1 complex spheroids (HUVEC, MSC), viability % test/control"
readout_type = "viability, T/C"
reported_measurement = 16.2

[[record]]
compound = "Nc1ccn(C2OC(CO)C(O)C2(F)F)c(=O)n1 (stereo not given) + Cc1cnc(CNC(=O)c2c(=O)c3ccc(N4CCCN(C)CC4)nc3n3c2sc2ccccc23)cn1"
system_tested = "IGROV1 complex spheroids (HUVEC, MSC), viability % test/control"
readout_type = "viability, T/C"
reported_measurement = 6.75

[[record]]
compound = "COc1cc(C2c3cc4c(cc3C(OC3OC5COC(C)OC5C(O)C3O)C3COC(=O)C23)OCO4)cc(OC)c1O (stereo not given) + Cc1cnc(CNC(=O)c2c(=O)c3ccc(N4CCCN(C)CC4)nc3n3c2sc2ccccc23)cn1"
system_tested = "IGROV1 complex spheroids (HUVEC, MSC), viability % test/control"
readout_type = "viability, T/C"
reported_measurement = 13.6

[[record]]
compound = "CC1COCCN1c1cc(C2(O)CC3CCC(C2)O3)c2cnn(-c3ccn[nH]3)c2n1 (stereo not given) + CN(C)c1ccc(Nc2c3ccc(NC(=O)CCN4CCCC4)cc3nc3cc(NC(=O)CCN4CCCC4)ccc23)cc1"
system_tested = "IGROV1 complex spheroids (HUVEC, MSC), viability % test/control"
readout_type = "viability, T/C"
reported_measurement = 8.86

[[record]]
compound = "COc1ncnc(C2CC2)c1-c1ncc2cnn(Cc3ccc(-c4nc(C(F)(F)F)cn4C(C)C)cc3)c2n1 + Cc1cnc(CNC(=O)c2c(=O)c3ccc(N4CCCN(C)CC4)nc3n3c2sc2ccccc23)cn1"
system_tested = "IGROV1 complex spheroids (HUVEC, MSC), viability % test/control"
readout_type = "viability, T/C"
reported_measurement = 11.1

[[record]]
compound = "COc1cccc2c1C(=O)c1c(O)c3c(c(O)c1C2=O)CC(O)(C(=O)CO)CC3OC1CC(N)C(O)C(C)O1 (stereo not given) + Cc1[nH]c2ccc(F)cc2c1-c1nc2c3cccnc3c3ncccc3c2[nH]1"
system_tested = "IGROV1 complex spheroids (HUVEC, MSC), viability % test/control"
readout_type = "viability, T/C"
reported_measurement = 3.51

[[record]]
compound = "COc1ccc([C@@H](O)c2cc(-c3ncnc4cc(N5CCOCC5)ccc34)c(F)cc2Cl)nn1 + Cc1[nH]c2ccc(F)cc2c1-c1nc2c3cccnc3c3ncccc3c2[nH]1"
system_tested = "IGROV1 complex spheroids (HUVEC, MSC), viability % test/control"
readout_type = "viability, T/C"
reported_measurement = 4.79

[[record]]
compound = "Nc1ccn(C2OC(CO)C(O)C2(F)F)c(=O)n1 (stereo not given) + Cc1[nH]c2ccc(F)cc2c1-c1nc2c3cccnc3c3ncccc3c2[nH]1"
system_tested = "IGROV1 complex spheroids (HUVEC, MSC), viability % test/control"
readout_type = "viability, T/C"
reported_measurement = 3.88

[[record]]
compound = "C=CC(=O)N1CCN(c2nc(=O)n(-c3c(C)ccnc3C(C)C)c3nc(-c4c(O)cccc4F)c(F)cc23)C(C)C1 (stereo not given) + CN(C)c1ccc(Nc2c3ccc(NC(=O)CCN4CCCC4)cc3nc3cc(NC(=O)CCN4CCCC4)ccc23)cc1"
system_tested = "IGROV1 complex spheroids (HUVEC, MSC), viability % test/control"
readout_type = "viability, T/C"
reported_measurement = 93.7

[[record]]
compound = "CC(C)(O)C1CCC(Nc2ccc3ncc(-c4cccc(C(F)(F)F)c4)n3n2)CC1 (stereo not given) + Cc1[nH]c2ccc(F)cc2c1-c1nc2c3cccnc3c3ncccc3c2[nH]1"
system_tested = "IGROV1 complex spheroids (HUVEC, MSC), viability % test/control"
readout_type = "viability, T/C"
reported_measurement = 4.14

